List of Span values.
target: T1, human chemokine (C-C motif) receptor 8 (CCR8) protein (human, UniProt P51685 1-355); assay: cell binding, CCR8-expressing U2OS cells, curve fit
T1 construct: whole, on cells; also called human CCR8
// keep it numeric: no unit symbol after the value

Before answering, review these 6 worked examples.
# Binder, Span
records = [
    ("88-H1L2 (antibody, V domains shown, Humanized 88D2C6) VH: EVQLVESGGGLVQPGGSLKLSCAASGFTFNPNAMNWVRQASGKGLEWVGRIRSKSNNYATYYADSVKDRFTISRDDSKNTAYLQMNSLKTEDTAVYYCTRGKDDGYRHYAMDYWGQGTTVTVSS VL: DIVMTQSPLSLPVTPGEPASISCRSSKSLLHSNANTYLYWFLQKPGQSPQLLIYRMSNLASGVPDRFSGSGSGTAFTLKISRVEAEDVGVYYCMQHLEYPFTFGGGTKVEIK", 26800),
    ("88-H3L3 (antibody, V domains shown, Humanized 88D2C6) VH: EVQLVESGGGLVQPGGSLKLSCAASGFTFNPNAMNWVRQASGKGLEWVARIRSKSNNYATYYADSVKDRFTISRDDSKNTLYLQMNNLKTEDTAVYYCVRGKDDGYRHYAMDYWGQGTTVTVSS VL: DIVMTQAPLSLPVTPGEPVSISCRSSKSLLHSNANTYLYWFLQKPGQSPQLLIYRMSNLASGVPDRFSGSGSGTAFTLKISRVEAEDVGVYYCMQHLEYPFTFGGGTKLEIK", 25800),
    ("88-H2L2 (antibody, V domains shown, Humanized 88D2C6) VH: EVQLVESGGGLVQPGGSLKLSCAASGFTFNPNAMNWVRQASGKGLEWVGRIRSKSNNYATYYADSVKDRFTISRDDSKNTAYLQMNNLKTEDTAVYYCVRGKDDGYRHYAMDYWGQGTTVTVSS VL: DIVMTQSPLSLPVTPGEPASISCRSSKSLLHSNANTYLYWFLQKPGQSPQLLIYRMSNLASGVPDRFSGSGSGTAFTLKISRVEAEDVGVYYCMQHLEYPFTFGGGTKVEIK", 25600),
    ("88-H3L2 (antibody, V domains shown, Humanized 88D2C6) VH: EVQLVESGGGLVQPGGSLKLSCAASGFTFNPNAMNWVRQASGKGLEWVARIRSKSNNYATYYADSVKDRFTISRDDSKNTLYLQMNNLKTEDTAVYYCVRGKDDGYRHYAMDYWGQGTTVTVSS VL: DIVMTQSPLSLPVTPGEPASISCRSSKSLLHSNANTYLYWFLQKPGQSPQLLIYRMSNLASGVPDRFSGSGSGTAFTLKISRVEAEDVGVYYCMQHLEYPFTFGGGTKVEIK", 24600),
    ("88-H2L3 (antibody, V domains shown, Humanized 88D2C6) VH: EVQLVESGGGLVQPGGSLKLSCAASGFTFNPNAMNWVRQASGKGLEWVGRIRSKSNNYATYYADSVKDRFTISRDDSKNTAYLQMNNLKTEDTAVYYCVRGKDDGYRHYAMDYWGQGTTVTVSS VL: DIVMTQAPLSLPVTPGEPVSISCRSSKSLLHSNANTYLYWFLQKPGQSPQLLIYRMSNLASGVPDRFSGSGSGTAFTLKISRVEAEDVGVYYCMQHLEYPFTFGGGTKLEIK", 24200),
    ("88-H1L3 (antibody, V domains shown, Humanized 88D2C6) VH: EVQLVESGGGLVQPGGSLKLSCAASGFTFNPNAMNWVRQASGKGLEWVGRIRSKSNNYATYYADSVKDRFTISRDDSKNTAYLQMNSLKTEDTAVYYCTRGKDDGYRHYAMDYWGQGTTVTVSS VL: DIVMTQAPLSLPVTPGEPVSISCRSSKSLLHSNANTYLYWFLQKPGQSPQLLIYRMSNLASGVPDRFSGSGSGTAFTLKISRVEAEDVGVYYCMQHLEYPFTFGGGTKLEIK", 26100),
]

Note: attention shifts to another entry.
Given the entry 88-xi (antibody, V domains shown, also called 88D2C6; chimeric 88D2C6) VH: EVQLVETGGGLVQPKGSLKLSCAASGFTFNPNAMNWVRQAPGKGLEWVARIRSKSNNYATYYADSVKDRFTISRDDSQSMLYLQMNNLKTEDTAMYYCVRGKDDGYRHYAMDYWGQGTSVTVSS VL: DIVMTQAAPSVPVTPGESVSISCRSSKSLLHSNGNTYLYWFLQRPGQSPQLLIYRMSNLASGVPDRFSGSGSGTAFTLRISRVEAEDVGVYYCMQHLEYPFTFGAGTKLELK , report its measured Span. 28600
